The measured values listed here are drawn from patent US10287255B2.

# Target Entity: human recombinant HDAC6 (Homo sapiens, UniProt Q9UBN7)
# Sequence (Q9UBN7 1-1215): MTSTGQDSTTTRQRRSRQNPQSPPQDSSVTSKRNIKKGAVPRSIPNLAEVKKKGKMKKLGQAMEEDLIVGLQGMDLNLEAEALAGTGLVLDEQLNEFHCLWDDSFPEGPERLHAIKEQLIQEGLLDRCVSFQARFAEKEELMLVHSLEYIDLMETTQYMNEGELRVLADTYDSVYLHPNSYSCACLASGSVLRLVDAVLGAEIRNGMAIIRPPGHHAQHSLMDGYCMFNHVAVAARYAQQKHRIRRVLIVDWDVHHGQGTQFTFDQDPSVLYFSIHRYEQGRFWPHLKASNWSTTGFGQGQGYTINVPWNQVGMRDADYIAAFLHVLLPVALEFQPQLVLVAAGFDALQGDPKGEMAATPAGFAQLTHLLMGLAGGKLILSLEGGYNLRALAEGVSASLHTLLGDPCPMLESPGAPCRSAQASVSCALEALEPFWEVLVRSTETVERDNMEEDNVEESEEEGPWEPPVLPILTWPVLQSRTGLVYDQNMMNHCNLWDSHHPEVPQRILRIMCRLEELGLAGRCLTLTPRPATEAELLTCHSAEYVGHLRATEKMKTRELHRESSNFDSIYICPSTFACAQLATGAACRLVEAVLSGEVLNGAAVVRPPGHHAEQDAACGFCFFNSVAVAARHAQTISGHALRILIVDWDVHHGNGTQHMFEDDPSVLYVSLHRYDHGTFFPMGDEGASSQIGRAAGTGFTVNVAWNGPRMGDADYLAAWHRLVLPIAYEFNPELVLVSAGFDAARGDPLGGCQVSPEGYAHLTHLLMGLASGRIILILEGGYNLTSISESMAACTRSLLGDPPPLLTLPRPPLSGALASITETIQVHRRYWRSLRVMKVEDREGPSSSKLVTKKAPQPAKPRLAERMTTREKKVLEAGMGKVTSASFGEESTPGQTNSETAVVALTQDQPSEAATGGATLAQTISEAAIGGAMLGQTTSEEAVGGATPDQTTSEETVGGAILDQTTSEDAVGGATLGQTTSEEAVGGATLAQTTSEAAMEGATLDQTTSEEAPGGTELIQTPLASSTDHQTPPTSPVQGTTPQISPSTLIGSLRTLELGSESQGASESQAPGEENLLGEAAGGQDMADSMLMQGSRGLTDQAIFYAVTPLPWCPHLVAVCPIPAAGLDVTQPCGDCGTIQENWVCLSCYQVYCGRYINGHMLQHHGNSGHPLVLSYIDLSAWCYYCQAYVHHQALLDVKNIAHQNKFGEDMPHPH
# Procedure Text: HDAC6 enzyme activity inhibition assay (in vitro, fluorimetric)
# Particulars: human recombinant HDAC6, fluorimetric kit, same protocol as HDAC1
Property: IC50 (nM)

Record excerpt, results attached:
Compound	Property	Assay Value
C[C@@H]1CN(C(=O)Nc2ccc3c(ccn3C)c2)C[C@H](C)N1Cc1ccc(C(=O)NO)cc1 [Compound 185]	IC50	249
C[C@@H]1CN(Cc2ccc(C(=O)NO)cc2)C[C@H](C)N1Cc1ccccc1 [Compound 084]	IC50	23
C[C@@H]1CN(Cc2ccc(C(=O)NO)cc2)C[C@H](C)N1C(=O)c1cccc(-c2ccncc2)c1 [Compound 245]	IC50	116
CCCCN1C[C@@H](C)N(Cc2ccc(C(=O)NO)cc2)[C@@H](C)C1 [Compound 274]	IC50	378
C[C@@H]1CN(C(=O)Nc2cccc(Cl)c2)C[C@H](C)N1Cc1ccc(C(=O)NO)cc1 [Compound 104]	IC50	82
C[C@@H]1CN(Cc2ccc(C(=O)NO)cc2)C[C@H](C)N1Cc1cccc(CN2CC(F)(F)C2)c1 [Compound 384]	IC50	106

[P] C[C@@H]1CN(Cc2ccc(C(=O)NO)cc2)C[C@H](C)N1Cc1cccc(CN2CCN(CC(F)(F)F)CC2)c1 [Compound 453]
[Q] C[C@@H]1CN(Cc2ccc(C(=O)NO)cc2)C[C@H](C)N1Cc1cocn1 [Compound 354]
[R] C[C@@H]1CN(Cc2ccc(C(=O)NO)cc2)C[C@H](C)N1Cc1cc(C(F)(F)F)cc(C(F)(F)F)c1 [Compound 214]
[S] C[C@@H]1CN(C(=O)c2cccc(-c3ccnc(F)c3)c2)C[C@H](C)N1Cc1ccc(C(=O)NO)cc1 [Compound 262]
Query: # sort list by recorded IC50, greatest to least Form entry: ranked labels (order as requested).
Result: S, R, P, Q

[I] CC(C)N1CCN(Cc2cccc(C(=O)N3[C@H](C)CN(Cc4ccc(C(=O)NO)cc4)C[C@@H]3C)c2)CC1 [Compound 434]
[II] C[C@@H]1CN(Cc2ccc(-n3cnnc3)cc2)C[C@H](C)N1Cc1ccc(C(=O)NO)cc1 [Compound 304]
Query: Which one would you say has the larger IC50 value: I , or II ? Return value: the label identifying the chosen record.
Result: II
(II: 280 nM, I: 60 nM)

[P] C[C@@H]1CN(Cc2ccc(C(=O)NO)cc2)C[C@H](C)N1C(=O)c1ccco1 [Compound 125]
[Q] C[C@@H]1CN(Cc2cccc(-c3ccoc3)c2)C[C@H](C)N1Cc1ccc(C(=O)NO)cc1 [Compound 396]
[R] C[C@@H]1CN(Cc2ccc(-c3ccco3)cc2)C[C@H](C)N1Cc1ccc(C(=O)NO)cc1 [Compound 303]
[S] CC(C)CCN1CCN(Cc2cccc(C(=O)N3[C@H](C)CN(Cc4ccc(C(=O)NO)cc4)C[C@@H]3C)c2)CC1 [Compound 442]
Query: Rank order required: IC50, descending. Reply with the labels, ordered as the question asks.
Result: R, Q, S, P
